- tgt: Prostaglandin G/H synthase 2 (Homo sapiens, UniProt P35354)
- Sequence (P35354 whole entry): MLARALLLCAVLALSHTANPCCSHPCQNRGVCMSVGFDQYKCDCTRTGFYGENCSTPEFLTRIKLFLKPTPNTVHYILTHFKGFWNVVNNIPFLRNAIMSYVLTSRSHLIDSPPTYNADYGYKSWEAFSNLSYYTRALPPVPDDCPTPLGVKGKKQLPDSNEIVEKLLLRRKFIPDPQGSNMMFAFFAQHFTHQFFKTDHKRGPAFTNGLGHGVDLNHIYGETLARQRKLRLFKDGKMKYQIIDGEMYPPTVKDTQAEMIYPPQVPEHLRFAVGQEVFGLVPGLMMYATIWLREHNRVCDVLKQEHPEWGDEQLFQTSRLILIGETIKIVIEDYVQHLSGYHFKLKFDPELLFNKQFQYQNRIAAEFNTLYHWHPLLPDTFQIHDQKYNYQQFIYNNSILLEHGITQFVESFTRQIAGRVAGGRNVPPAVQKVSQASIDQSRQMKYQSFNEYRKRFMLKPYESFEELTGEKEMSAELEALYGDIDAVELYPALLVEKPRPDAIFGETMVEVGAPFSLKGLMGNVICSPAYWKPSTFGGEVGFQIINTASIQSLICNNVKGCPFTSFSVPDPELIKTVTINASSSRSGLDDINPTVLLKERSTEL
- test: Inhibition of human recombinant COX-2 expressed in insect cell system using arachidonic acid as substrate assessed as reduction of PGG2 to PGH2 incubated for 1 min prior to substrate addition measured after 25 secs by chromogenic assay
Items are presented alongside their recorded IC50.
property_measured: IC50 (µM)

• CCOC(=O)c1c(C)oc2ccc(Oc3ccccc3)cc12 = 18.5
• CCOC(=O)c1c(C)oc2ccc(Oc3ccc(OC)cc3)cc12 = 8.6
• CCOC(=O)c1c(C)oc2ccc(Oc3ccc4ccccc4c3)cc12 = 15.8
• CCOC(=O)c1c(C)oc2ccc(Oc3ccc(C)cc3)cc12 = 4.2
• CCOC(=O)c1c(C)oc2ccc(Oc3ccccn3)cc12 = 8.1
• CCOC(=O)c1c(-c2ccccc2)oc2ccc(Oc3ccccc3)cc12 = 18.2
• CCOC(=O)c1c(C)oc2ccc(Oc3ccccc3C)cc12 = 6.1
• CCOC(=O)c1c(-c2ccccc2)oc2ccc(Oc3ccccc3C)cc12 = 20.1
• CCOC(=O)c1c(-c2ccccc2)oc2ccc(Oc3ccc(C)cc3)cc12 = 19.2
